assay: protein stability index of a GFP-peptide fusion (GPS, HEK-293T) (PSI 1-6); higher = more stable; conditions: treatment: MLN4924 1 uM, 8 h; c terminus: a fixed tail appended;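 also: 24-mer peptide tiles fused after GFP, lentivirally expressed, FACS-sorted into six equal bins by GFP/DsRed ratio, decoded by Illumina sequencing, PSI is the read-weighted mean bin number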
Response key: met means protein stability index >= 4; not met means protein stability index < 4.

{"Sequence text": "EVPTAAGALTPTPAPTTTTATREE [CLPTM1]", "Class": "met"}
{"Sequence text": "KKLHEEELRDLQVSVESQQVQQVE [PRPH]", "Class": "met"}
{"Sequence text": "FKLFFNGRPGIVAWTLINLSFAAK [DHCR7]", "Class": "not met"}
{"Sequence text": "KVLQGGEQEIQFEDFTNTLRELGH [PKD2L1]", "Class": "not met"}
{"Sequence text": "LRGLCRPLRPLLGFRESDSAKPAS [C6orf223]", "Class": "not met"}
{"Sequence text": "KKIYEAKRFTDAGFEHYDLFFIDG [CDC14A]", "Class": "not met"}
{"Sequence text": "SRLTPGGKAAQAGVAVGDWVLSID [PDLIM7]", "Class": "not met"}
{"Sequence text": "NNWYYISPRLTFQCLEDLVNHYSE [SLA]", "Class": "not met"}
{"Sequence text": "IDFSPYLEPLGAPQAPAPATATDT [CEBPB]", "Class": "met"}
{"Sequence text": "NVYPEMRVYNNTLTYGEVRNSKAS [GALNT9]", "Class": "met"}
{"Sequence text": "AEEAGLKNNDLVVAVNGESVETLD [PDZK1]", "Class": "met"}
{"Sequence text": "VKEDDKLIFHRHPVAQSTDAIRGK [SPSB1]", "Class": "met"}
{"Sequence text": "KPPQNPVDTYDVQVTAPGAPPLQA [TNXB]", "Class": "met"}
{"Sequence text": "PVKSYDYLLKFLLVGDSDVGKGEI [RAB40C]", "Class": "not met"}
{"Sequence text": "QLGLGRGASTFKEEPQTVPEARSR [JUNB]", "Class": "met"}
{"Sequence text": "MNGEECAEDLRMLDASGEKMNGSH [IKZF1]", "Class": "met"}
{"Sequence text": "TPTPFFHTFAGDDCQAGLNFADED [WAS]", "Class": "met"}
{"Sequence text": "ILLLDGAAWLTLWVFGTSFLPFLL [FADS1]", "Class": "not met"}
{"Sequence text": "DQNNVIENEETGEFSIDNYPTDNT [MIA2]", "Class": "met"}
{"Sequence text": "RQLTKPRPVILDPADPTGNLGGGD [OAS1]", "Class": "met"}
{"Sequence text": "RIKGVEVFCPLDPPPPYEAVVSQM [FAM189A2]", "Class": "not met"}
{"Sequence text": "EEIKKLTTDPDLILEVLRSSPMVQ [LARP4]", "Class": "not met"}
{"Sequence text": "RRILDELTLCRSDLEAQMESLKEE [KRT33B]", "Class": "met"}
{"Sequence text": "DEQAPQRQRLLADLLHNVSQNIAA [DFFB]", "Class": "not met"}
{"Sequence text": "VEKETQEKMTILQTYFRQNRDEVL [ATP6V1G1]", "Class": "not met"}
{"Sequence text": "SLGKARTAQVQKDARIGEAEAKRD [FLOT1]", "Class": "met"}
{"Sequence text": "EPEPAEVTSTSQSPHSPDSSQSSL [DDIT3]", "Class": "met"}
